Target: T1, human serum albumin (human, UniProt P02768 25-609)
T1 construct: Bought serum albumin; also called HSA; antigen
Assay: SPR (Biacore), ratio of the off rates at the two pH
measurementType: Ratio pH 7/pH 5 (of kd)

Nanobody 4D4 (VHH) VHH: EVQLVESGGGLVQAGDSLRLSCAASGRTFSPYVMGWFRRAPGKEREFVGGINWSGSNTWYTDSVKGRFTISRDNVKNMVYLQMNSLKPEDTAVYYCAAGSGVGMYRYERQYDYWGQGTQVTVSS : 2.76
Nanobody 4C9 (VHH) VHH: EVQLVESGGGLVQAGDSLRLSCTASERPFSTYVMGWFRRAPGKEREFVGGITWSGINAWYTDSVLGRFTISSDNAKNTVYLQMNSLKPEDTAVYYCAAASGVGRYRYELQYDYWGQGTQVTVSS : 3.88
Nanobody 4D7 (VHH) VHH: EVQLVESGGGLVQAGDSLRLSCAASGRPFSSYVMGWFRRAPGKEREFVGGINWNSGNTWYSDSVLGRFTISRDNAKNTVDLQMNSLKPEDTAVYYCATASGVGYYRYERQYDYWGQGTQVTVSS : 2.42
Nanobody 4D10 (VHH) VHH: EVQLVESGGGLVQAGDSLRLSCTASERPFMSYVMGWFRRAPGKDREFVGAITWSGINTWYSDSVLGRFTISRDNAKNTVYLQMNSLKPEDTAVYYCAVADGVGLYRYERQYDYWGQGTQVTVSS : 6.52

Origin of measurements: patent US20100216187A1
